ASSAYED TARGET: T1, ANTIBODY EXPRESSION CONTROL
T1 construct: also called mouse anti-canine antibody (capture reagent of the expression control ELISA)
ASSAY: SPR Biacore, expression control
Description: The affinity with which candidate mAbs bind canine, feline, and human (SEQ ID NO: 122; Human_OSMR) (R&D Systems, Minneapolis, Minn.) OSMR was determined using surface plasmon resonance (SPR) on a Biacore system (Biacore Life Sciences (GE Healthcare), Uppsala, Sweden). […] Chips were quenched with ethanolamine and the affinity with which all candidate mAbs bound to the immobilized OSMR was evaluated. […]
Below: a set of entries, each annotated with reported kon.
MEASUREMENT KIND: kon

>>> experimental_result("Mu_09E09_VL (SEQ ID NO: 37)_L94A (antibody, V domains shown) VH: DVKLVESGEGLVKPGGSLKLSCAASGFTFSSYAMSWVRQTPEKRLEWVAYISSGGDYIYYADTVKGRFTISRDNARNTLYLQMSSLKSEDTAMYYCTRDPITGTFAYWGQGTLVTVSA VL: DLQMTQTTSSLSASLGDRVTISCRASQDINNYLNWYQQKPDGTVKLLIYYTSTLHSGVPSRFSGSGSGTDYSLTISNLEQEDIATYFCQQGNTAPWTFGGGTKLEIKR")
"305000 M⁻¹ s⁻¹"
>>> experimental_result("Mu_09E09_VH (SEQ ID NO: 35)_F105A (antibody, V domains shown) VH: DVKLVESGEGLVKPGGSLKLSCAASGFTFSSYAMSWVRQTPEKRLEWVAYISSGGDYIYYADTVKGRFTISRDNARNTLYLQMSSLKSEDTAMYYCTRDPITGTAAYWGQGTLVTVSA VL: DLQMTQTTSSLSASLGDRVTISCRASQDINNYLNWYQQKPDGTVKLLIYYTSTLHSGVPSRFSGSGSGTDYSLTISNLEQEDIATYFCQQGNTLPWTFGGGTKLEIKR")
"338000 M⁻¹ s⁻¹"
>>> experimental_result("Mu_02D09_VH (SEQ ID NO: 31)_H35A (antibody, V domains shown) VH: EVQLVESGGGLVKPGGSLTLSCAASGFTFSDYGMAWLRQAPEKGLEWVAYISSGSRAVFFADTVKGRFTISRDNAKNTLFLQMTSLRSDDTAMYYCARDRYDGRGFAYWGQGTLVTVSA VL: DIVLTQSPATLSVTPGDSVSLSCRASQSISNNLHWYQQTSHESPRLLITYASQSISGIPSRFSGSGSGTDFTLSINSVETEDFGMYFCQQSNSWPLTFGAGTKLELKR")
"139000 M⁻¹ s⁻¹"
>>> experimental_result("Mu_02D09_VL (SEQ ID NO: 33)_Q27A (antibody, V domains shown) VH: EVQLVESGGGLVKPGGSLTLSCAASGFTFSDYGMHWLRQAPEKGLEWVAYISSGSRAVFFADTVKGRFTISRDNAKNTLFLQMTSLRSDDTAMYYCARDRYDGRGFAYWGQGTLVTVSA VL: DIVLTQSPATLSVTPGDSVSLSCRASASISNNLHWYQQTSHESPRLLITYASQSISGIPSRFSGSGSGTDFTLSINSVETEDFGMYFCQQSNSWPLTFGAGTKLELKR")
"158000 M⁻¹ s⁻¹"
>>> experimental_result("Mu_09E09_VH (SEQ ID NO: 35)_S35A (antibody, V domains shown) VH: DVKLVESGEGLVKPGGSLKLSCAASGFTFSSYAMAWVRQTPEKRLEWVAYISSGGDYIYYADTVKGRFTISRDNARNTLYLQMSSLKSEDTAMYYCTRDPITGTFAYWGQGTLVTVSA VL: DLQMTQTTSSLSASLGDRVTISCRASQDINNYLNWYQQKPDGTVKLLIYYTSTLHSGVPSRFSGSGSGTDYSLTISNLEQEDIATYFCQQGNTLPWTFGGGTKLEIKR")
"297000 M⁻¹ s⁻¹"
